target: 5-hydroxytryptamine receptor 2A (Rattus norvegicus); assay: Binding affinity towards cloned rat Inhibition of binding towards 5-hydroxytryptamine 2A receptor at 100 nM concentration was determined using [3H]ketanserin as radioligand
Sequence (P14842 whole entry): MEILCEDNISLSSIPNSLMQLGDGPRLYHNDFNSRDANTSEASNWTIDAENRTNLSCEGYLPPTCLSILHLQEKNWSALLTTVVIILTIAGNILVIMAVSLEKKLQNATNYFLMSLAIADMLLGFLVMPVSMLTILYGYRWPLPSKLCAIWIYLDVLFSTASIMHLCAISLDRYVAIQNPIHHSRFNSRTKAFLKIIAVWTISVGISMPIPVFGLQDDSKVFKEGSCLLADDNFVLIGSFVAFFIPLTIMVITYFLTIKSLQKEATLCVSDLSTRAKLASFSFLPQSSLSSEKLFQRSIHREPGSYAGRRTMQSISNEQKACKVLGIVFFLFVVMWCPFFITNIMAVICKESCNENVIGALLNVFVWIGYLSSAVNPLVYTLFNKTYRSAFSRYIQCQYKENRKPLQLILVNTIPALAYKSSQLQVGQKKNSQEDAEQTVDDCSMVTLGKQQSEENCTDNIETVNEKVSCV
measurement.type: Ki (nM)
Return type: number; implicit unit nM.

Input C1=NCCc2c1[nH]c1ccccc21 . Output Ki: 2560

###

biological target: Sodium-dependent noradrenaline transporter (Homo sapiens)
Sequence (P23975 whole entry): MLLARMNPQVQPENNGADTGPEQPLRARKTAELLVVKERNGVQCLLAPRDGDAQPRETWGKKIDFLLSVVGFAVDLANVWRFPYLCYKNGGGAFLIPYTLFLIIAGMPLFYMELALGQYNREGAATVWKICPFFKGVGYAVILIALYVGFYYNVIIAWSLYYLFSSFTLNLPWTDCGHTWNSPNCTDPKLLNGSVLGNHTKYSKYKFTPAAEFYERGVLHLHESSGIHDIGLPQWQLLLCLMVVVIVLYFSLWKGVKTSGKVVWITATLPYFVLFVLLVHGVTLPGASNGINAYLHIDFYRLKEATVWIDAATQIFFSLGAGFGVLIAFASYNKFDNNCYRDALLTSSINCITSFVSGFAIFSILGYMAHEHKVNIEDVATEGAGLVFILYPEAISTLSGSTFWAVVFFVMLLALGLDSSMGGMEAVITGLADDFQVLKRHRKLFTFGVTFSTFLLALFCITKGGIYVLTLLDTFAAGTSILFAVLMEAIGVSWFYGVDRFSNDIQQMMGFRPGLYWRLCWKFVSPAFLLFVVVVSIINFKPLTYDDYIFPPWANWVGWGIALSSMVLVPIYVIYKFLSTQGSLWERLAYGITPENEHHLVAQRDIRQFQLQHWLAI
Parameter Ki: see the listing below.

INSERT INTO measurements (compound, recorded_result) VALUES
  ('COc1ccc2c(c1)[nH]c1c(C)nccc12 [HARMINE]', '3.26 µM');

Input COc1ccc2[nH]c3c(c2c1)CCN=C3C . Output Ki: > 4.1 µM

Input CC1=NCCc2c1[nH]c1ccccc21 . Output Ki: > 10 µM

###

pKi: −log10 of the molar value.
// values below are pKi; system is Beta-2 adrenergic receptor (Homo sapiens, UniProt P07550)
Sequence (P07550 whole entry): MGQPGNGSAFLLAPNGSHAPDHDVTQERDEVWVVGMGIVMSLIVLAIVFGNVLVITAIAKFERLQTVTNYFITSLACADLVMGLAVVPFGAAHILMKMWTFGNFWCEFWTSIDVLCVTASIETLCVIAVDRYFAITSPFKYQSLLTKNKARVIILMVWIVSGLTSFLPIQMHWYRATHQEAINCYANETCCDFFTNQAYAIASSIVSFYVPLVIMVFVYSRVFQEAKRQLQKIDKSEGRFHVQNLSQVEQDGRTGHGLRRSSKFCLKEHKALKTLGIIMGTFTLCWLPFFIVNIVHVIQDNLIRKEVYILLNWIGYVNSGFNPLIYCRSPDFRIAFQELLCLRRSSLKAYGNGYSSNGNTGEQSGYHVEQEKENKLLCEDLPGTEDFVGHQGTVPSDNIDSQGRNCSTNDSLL

Entry COc1ccc2c(c1)[nH]c1c(C)nccc12 under Beta-2 adrenergic receptor (Homo sapiens, UniProt P07550) had pKi of < 5.00

Entry COc1ccc2c3c([nH]c2c1)CNCC3 under Beta-2 adrenergic receptor (Homo sapiens, UniProt P07550) had pKi of < 5.00

###

// values below are Ki; system is Alpha-1A adrenergic receptor (Homo sapiens, UniProt P35348)
Sequence (P35348 whole entry): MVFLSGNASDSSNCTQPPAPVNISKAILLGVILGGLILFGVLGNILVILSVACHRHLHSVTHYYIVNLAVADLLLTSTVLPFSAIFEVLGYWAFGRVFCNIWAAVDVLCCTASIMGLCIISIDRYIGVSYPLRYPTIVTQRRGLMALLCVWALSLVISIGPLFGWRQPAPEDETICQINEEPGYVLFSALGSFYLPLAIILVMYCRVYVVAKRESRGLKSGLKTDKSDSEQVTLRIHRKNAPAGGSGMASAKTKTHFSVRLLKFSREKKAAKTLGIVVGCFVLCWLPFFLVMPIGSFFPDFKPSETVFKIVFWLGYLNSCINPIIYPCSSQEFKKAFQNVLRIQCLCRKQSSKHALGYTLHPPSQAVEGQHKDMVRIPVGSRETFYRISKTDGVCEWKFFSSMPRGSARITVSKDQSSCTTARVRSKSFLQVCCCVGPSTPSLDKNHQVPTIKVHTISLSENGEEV

INSERT INTO measurements (compound, recorded_result) VALUES
  ('COc1ccc2c3c([nH]c2c1)CNCC3', '> 10 µM');

Please find the next compound below.
Entry COc1ccc2c(c1)[nH]c1c(C)nccc12 [HARMINE] under Alpha-1A adrenergic receptor (Homo sapiens, UniProt P35348) had Ki of > 10 µM

###

biological target: 5-hydroxytryptamine receptor 6 (Homo sapiens, UniProt P50406)
Sequence (P50406 whole entry): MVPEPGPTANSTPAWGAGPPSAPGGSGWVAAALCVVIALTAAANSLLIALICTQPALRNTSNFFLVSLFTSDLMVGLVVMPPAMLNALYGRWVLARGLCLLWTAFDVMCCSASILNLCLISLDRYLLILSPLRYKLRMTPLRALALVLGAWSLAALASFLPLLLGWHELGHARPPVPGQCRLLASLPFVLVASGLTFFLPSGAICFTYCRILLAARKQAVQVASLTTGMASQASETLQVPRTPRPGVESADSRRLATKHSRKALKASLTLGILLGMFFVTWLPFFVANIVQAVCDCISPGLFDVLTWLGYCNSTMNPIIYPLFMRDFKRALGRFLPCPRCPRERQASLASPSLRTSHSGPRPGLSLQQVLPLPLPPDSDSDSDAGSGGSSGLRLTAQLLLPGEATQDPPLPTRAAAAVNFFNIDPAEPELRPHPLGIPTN
Parameter Ki: see the listing below.
Return type: number; implicit unit nM.

Solved cases below.
INSERT INTO assay_data (compound, recorded_result) VALUES
  ('CC1=NCCc2c1[nH]c1ccccc21', 1450),
  ('COc1ccc2c(c1)[nH]c1c(C)nccc12 [HARMINE]', 1480);

Please find the next compound below.
Entry COc1ccc2[nH]c3c(c2c1)CCN=C3C under 5-hydroxytryptamine receptor 6 (Homo sapiens, UniProt P50406) had Ki of 1930

###

Target: 5-hydroxytryptamine receptor 2C (Homo sapiens)
Sequence (P28335 whole entry): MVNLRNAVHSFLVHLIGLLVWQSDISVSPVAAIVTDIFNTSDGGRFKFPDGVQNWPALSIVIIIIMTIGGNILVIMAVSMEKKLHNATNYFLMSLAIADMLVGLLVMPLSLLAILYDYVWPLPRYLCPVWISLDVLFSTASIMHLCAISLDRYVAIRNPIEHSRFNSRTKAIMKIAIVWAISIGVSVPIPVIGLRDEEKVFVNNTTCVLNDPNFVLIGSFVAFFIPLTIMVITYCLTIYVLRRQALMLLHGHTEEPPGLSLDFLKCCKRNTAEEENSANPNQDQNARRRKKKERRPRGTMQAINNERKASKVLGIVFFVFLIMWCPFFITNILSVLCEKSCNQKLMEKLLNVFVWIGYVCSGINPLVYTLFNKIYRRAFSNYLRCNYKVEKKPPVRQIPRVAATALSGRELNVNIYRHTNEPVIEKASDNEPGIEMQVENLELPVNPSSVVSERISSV
measurement.type: pKi
Remember the convention: pKi equals -log10 of concentration in molar.

INSERT INTO measurements (smiles_data, recorded_result) VALUES
  ('CC1=NCCc2c1[nH]c1ccccc21', 5.73),
  ('COc1ccc2[nH]c3c(c2c1)CCN=C3C', 6.03);

Please find the next compound below.
Entry COc1ccc2c(c1)[nH]c1c(C)nccc12 under 5-hydroxytryptamine receptor 2C (Homo sapiens) had pKi of 5.03
